Provenance of the data: patent US20060093617A1

MEASUREMENT_TARGET: HLA-B0702 (human)
RUN_DESCRIPTION: competition vs 125I-labelled probe peptide, purified soluble HLA
MEASUREMENT_LABEL: Ki

binder="AAKLSALGL (modifications not checked) […]" measurement_label=Ki observed_value="277 nM"
